Attribution: paper PMC6943619

Test target: human MOR (Homo sapiens)
Construct: expressed in transfected cells; host or cells: CHO cells (University of Ferrara), co-expressing Gαqi5
Sequence (P35372 whole entry): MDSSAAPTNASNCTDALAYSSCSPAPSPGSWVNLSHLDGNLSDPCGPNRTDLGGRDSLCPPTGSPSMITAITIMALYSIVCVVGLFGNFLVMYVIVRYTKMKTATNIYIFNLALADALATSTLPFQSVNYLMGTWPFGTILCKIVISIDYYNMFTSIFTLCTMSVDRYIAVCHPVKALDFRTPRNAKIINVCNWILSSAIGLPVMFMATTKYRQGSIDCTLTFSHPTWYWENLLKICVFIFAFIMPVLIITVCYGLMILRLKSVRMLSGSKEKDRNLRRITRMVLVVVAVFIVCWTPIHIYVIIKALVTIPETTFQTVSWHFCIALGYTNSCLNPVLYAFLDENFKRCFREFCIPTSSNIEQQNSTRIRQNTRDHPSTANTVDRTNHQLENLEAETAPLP
Procedure summary: Calcium mobilization functional assay, agonist mode
Format: cell-based
Test conditions: efficacy (intrinsic activity), Emax relative to EM-2; CHO cells co-expressing human MOR and Gαqi5; mean ± SEM, n = 5; SEM
Where a SMILES comes first, the peptide text is derived from it. Bridges are numbered along the chain shown (N, C = ends). [ ]: non-standard residue; d: D form. Nle = CCCC[C@H](N)C(=O)O
Endpoint label: MOR α ± SEM
Answers are plain numbers.

Worked cases, answers included:
Molecule	MOR α ± SEM
CSCC[C@H](NC(=O)[C@H](CC(C)C)NC(=O)CNC(=O)[C@@H]1CC(=O)NCCCC[C@@H](NC(=O)[C@@H](N)Cc2ccc(O)cc2)C(=O)N[C@@H](Cc2ccccc2)C(=O)N[C@@H](Cc2ccccc2)C(=O)N1)C(N)=O [compound 7, Tyr-[D-Lys-Phe-Phe-Asp]-Gly-Leu-Met-NH2] (H-Y[dK]FFDGLM-NH2; lactam 2-5)	0.85
CSCC[C@H](NC(=O)[C@H](CC(C)C)NC(=O)CNC(=O)[C@H](Cc1ccccc1)NC(=O)[C@@H]1CC(=O)NCCCC[C@@H](NC(=O)[C@@H](N)Cc2ccc(O)cc2)C(=O)N[C@@H](Cc2ccccc2)C(=O)N[C@@H](Cc2ccccc2)C(=O)N1)C(N)=O [compound 6] (H-Y[dK]FFDFGLM-NH2; lactam 2-5)	0.81

Kindly consider the entry below.
Lookup: Find the recorded MOR α ± SEM belonging to CCCC[C@H](NC(=O)[C@H](CC(C)C)NC(=O)[C@@H](Cc1c[nH]c2ccccc12)NC(=O)[C@H](Cc1ccccc1)NC(=O)[C@@H](Cc1c[nH]c2ccccc12)NC(=O)[C@@H]1CC(=O)NCCCC[C@@H](NC(=O)[C@@H](N)Cc2ccc(O)cc2)C(=O)N[C@@H](Cc2ccccc2)C(=O)N[C@@H](Cc2ccccc2)C(=O)N1)C(N)=O [compound 3] (H-Y[dK]FFD[dW]F[dW]L[Nle]-NH2; lactam 2-5) and report it.
Found: 0.72

----------
Exercise: for every item that follows, state its recorded KOR α ± SEM.
Test target: human KOR (Homo sapiens)
Construct: expressed in transfected cells; host or cells: CHO cells (University of Ferrara), co-expressing Gαqi5
Sequence (P41145 whole entry): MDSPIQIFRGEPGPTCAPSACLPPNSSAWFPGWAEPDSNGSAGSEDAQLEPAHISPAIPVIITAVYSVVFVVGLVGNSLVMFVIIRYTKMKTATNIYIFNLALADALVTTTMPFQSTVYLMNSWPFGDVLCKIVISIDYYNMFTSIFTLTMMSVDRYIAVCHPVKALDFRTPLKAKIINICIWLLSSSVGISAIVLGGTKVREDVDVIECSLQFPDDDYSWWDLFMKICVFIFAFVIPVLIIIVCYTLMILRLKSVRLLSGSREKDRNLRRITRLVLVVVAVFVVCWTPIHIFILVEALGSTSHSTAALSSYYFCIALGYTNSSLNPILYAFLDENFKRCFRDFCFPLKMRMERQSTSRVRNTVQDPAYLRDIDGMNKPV
Procedure summary: Calcium mobilization functional assay, agonist mode
Assay type: cell-based
Test conditions: efficacy (intrinsic activity), Emax relative to dynorphin A; CHO cells co-expressing human KOR and Gαqi5; mean ± SEM, n = 5; SEM
Where a SMILES comes first, the peptide text is derived from it. Bridges are numbered along the chain shown (N, C = ends). [ ]: non-standard residue; d: D form. Nle = CCCC[C@H](N)C(=O)O
Give bare numbers.

Known KOR α ± SEM results, listed for orientation:
Molecule	Test target	KOR α ± SEM
CSCC[C@H](NC(=O)[C@H](CC(C)C)NC(=O)CNC(=O)[C@H](Cc1ccccc1)NC(=O)[C@@H]1CC(=O)NCCCC[C@@H](NC(=O)[C@@H](N)Cc2ccc(O)cc2)C(=O)N[C@@H](Cc2ccccc2)C(=O)N[C@@H](Cc2ccccc2)C(=O)N1)C(N)=O [compound 6] (H-Y[dK]FFDFGLM-NH2; lactam 2-5)	human KOR (Homo sapiens)	0.92
CSCC[C@H](NC(=O)[C@H](CC(C)C)NC(=O)CNC(=O)[C@H](Cc1ccccc1)NC(=O)[C@H](Cc1ccccc1)NC(=O)[C@@H]1CC(=O)NCCCC[C@@H](NC(=O)[C@@H](N)Cc2ccc(O)cc2)C(=O)N[C@@H](Cc2ccccc2)C(=O)N[C@@H](Cc2ccccc2)C(=O)N1)C(N)=O [compound 5] (H-Y[dK]FFDFFGLM-NH2; lactam 2-5)	human KOR (Homo sapiens)	0.64

Lookup: Requested read-out: KOR α ± SEM. Entry: CCCC[C@H](NC(=O)[C@H](CC(C)C)NC(=O)[C@@H](Cc1c[nH]c2ccccc12)NC(=O)[C@H](Cc1ccccc1)NC(=O)[C@@H](Cc1c[nH]c2ccccc12)NC(=O)[C@@H]1CC(=O)NCCCC[C@@H](NC(=O)[C@@H](N)Cc2ccc(O)cc2)C(=O)N[C@@H](Cc2ccccc2)C(=O)N[C@@H](Cc2ccccc2)C(=O)N1)C(N)=O [compound 3] (H-Y[dK]FFD[dW]F[dW]L[Nle]-NH2; lactam 2-5)
Found: 1.05
